# protocol: recombinant UMI read abundance after kanamycin selection (control-corrected) (log10(CPM+1)); higher = more efficient recombination; extreme values may be limits of the assay; sequences stand for … in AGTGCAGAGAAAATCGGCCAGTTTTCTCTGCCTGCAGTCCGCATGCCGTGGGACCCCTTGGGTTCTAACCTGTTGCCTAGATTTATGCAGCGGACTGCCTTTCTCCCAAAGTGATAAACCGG…AGGTTGGTTTCACT; site = the 11-nt donor;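 further: IS621 bridge recombinase in Escherichia coli cells against a fixed T5 target plasmid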
# recombinant UMI read abundance (log10) values compiled below

Would you please look over these solved cases?
* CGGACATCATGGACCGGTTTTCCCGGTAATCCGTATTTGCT (site CGGACGTCTAG) | 0
* CGCGGTCCATGGACCGGTTTTCCCGGTAATCCGTATTTGCA (site CCCGGTCCTTG) | 0.3
* GAAGATTCATGGACCGGTTTTCCCGGTAATCCGTATTTGTG (site GAAGATTCTTA) | 1.24
* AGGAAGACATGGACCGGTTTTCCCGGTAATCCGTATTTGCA (site CGGAGGACTTG) | 0.505
* TATTTTGCATGGACCGGTTTTCCCGGTAATCCGTATTTGTG (site TATTTTGCTCA) | 0.00898
* AAGGGCTCATGGACCGGTTTTCCCGGTAATCCGTATTTGGA (site AAGGGCTCTTC) | 1.96

Consider the sequence shown here: GTAGGTACATGGACCGGTTTTCCCGGTAATCCGTATTTGAG (site GTAGGTACTAT) What is its recorded recombinant UMI read abundance (log10)? 0.994

Item GAGTCGACATGGACCGGTTTTCCCGGTAATCCGTATTTGGG (site CAGTCGACTCC) has what recorded recombinant UMI read abundance (log10)? 0.0177

I am curious: what recombinant UMI read abundance (log10) value has been reported for TGGAAGACATGGACCGGTTTTCCCGGTAATCCGTATTTGCA (site TGGAAGACTTG) ? 2.67

Please look up its recombinant UMI read abundance (log10): ACGTTAGCATGGACCGGTTTTCCCGGTAATCCGTATTTGTG (site GCGTTAGCTCA) 0.298

These entries and their values trace back to the supplement of paper PMC11208160.
